tested on: HOP-62 NSCLC; test: NCI-60 one-dose screen, 48 h; conditions: 10 µM unless noted
Compounds without any hit were thinned out: in the full panel of roughly 83,000, 20% have a hit. Active and inactive are the calls of the source. How the source made its calls: active means growth percent below 10; inactive means the rest.
Parameter call: string, one of active, inactive

Below are worked cases with known answers.
COc1cc(-c2nc3occn3c2-c2ccnc(NCCNS(=O)(=O)c3ccc(Cl)cc3)n2)ccc1F = inactive
COc1cc(Nc2cc(O)c3c(=O)cc(-c4ccccc4)oc3c2)cc(OC)c1 = inactive
COc1cc(/C=C2\C(=O)N(Cc3ccc(Cl)cc3)c3ccccc32)cc(OC)c1OC = inactive

Dear colleague, could you share the recorded outcome for COc1ccc(C2CC(c3cccc(Nc4ccncc4)c3)=NN2c2cc(Cl)cc(Cl)c2)cc1 (stereo not drawn) when you have a moment?
inactive

Dear colleague, could you share the recorded outcome for Cc1ccc(C(=O)Nc2ccccc2C(=O)N/N=C(\c2ccccc2)c2ccccn2)cc1 when you have a moment?
inactive

Dear colleague, could you share the recorded outcome for O=C(O)c1ccc[n+](CC(=O)N2CCN(c3cc4c(cc3F)c(=O)c(C(=O)O)cn4C3CC3)CC2)c1 when you have a moment?
inactive

Dear colleague, could you share the recorded outcome for Nc1nc(N)nc(NCc2ccccc2)n1 when you have a moment?
inactive

Dear colleague, could you share the recorded outcome for CC(=O)O[C@]1(C(C)=O)CC[C@H]2[C@@H]3C=C(Cl)C4=CC(=O)CC[C@]4(C)[C@H]3CC[C@@]21C when you have a moment?
inactive

Dear colleague, could you share the recorded outcome for C#CC(=O)Nc1cccc2c1cc(C)n2-c1nc2c(c(NCc3ccccc3)n1)CCCC2 when you have a moment?
active

Dear colleague, could you share the recorded outcome for C=C(C)[C@@H]1CC[C@]2(CO)CC[C@]3(C)[C@H](CC[C@@H]4[C@@]5(C)CCCNC(C)(C)[C@@H]5CC[C@]43C)[C@@H]12 when you have a moment?
inactive

Dear colleague, could you share the recorded outcome for COc1ccc(-c2nc(N/N=C/c3cccc(Br)c3)nc(N3CCOCC3)c2C#N)cc1 when you have a moment?
inactive

Dear colleague, could you share the recorded outcome for Cc1nn(-c2ccccc2)c(N2CCOCC2)c1/C=N/N=c1\sc2ccccc2n1C when you have a moment?
inactive

Dear colleague, could you share the recorded outcome for CCCOc1nc(SCCC)nc2c1cnn2-c1ccccc1 when you have a moment?
inactive

###

system: HCC-2998 colon; assay: NCI-60 one-dose screen, 48 h (100 = growth as untreated, 0 = no growth, -100 = all killed); details: 10 µM unless noted
The panel holds about 83,000 compounds, 20% with a hit somewhere; the sample as a whole holds those more often.
readout.kind: growth (%)
Report only the number, with the unit % understood.

COc1cccc(C(Cc2ccccc2)Nc2ccccc2)c1OC (stereo unspecified) = 91.2
[O-][n+]1ccccc1CCN(O)CCc1cccc[n+]1[O-] = 109
C=C(C)[C@@H]1CC[C@]2(C(=O)N3CCN(C)CC3)CC[C@]3(C)[C@H](CC[C@@H]4[C@@]5(C)CCC(=O)C(C)(C)[C@@H]5CC[C@]43C)[C@@H]12 = 82.1
COc1cc(C2CC(c3cccc(Nc4ccncc4)c3)=NN2c2cc(Cl)cc(Cl)c2)cc(OC)c1OC (stereo unspecified) = -60.4

The recorded growth for entry Nc1c(Cl)cc([N+](=O)[O-])cc1Br equals 93.7

The recorded growth for entry Cc1ccc2[nH]c(=O)cc(-n3nncc3COc3ccc(C=O)cc3)c2c1 equals 109

The recorded growth for entry CS(=O)(=O)c1ccc(-c2cc(-c3nnc(SCC(=O)Nc4ccc(C(=O)/C=C/c5ccc(Cl)cc5)cc4)n3-c3ccccc3)c3ccccc3n2)cc1 equals 106

The recorded growth for entry COc1ccc(-c2nc(N=Nc3c(O)[nH]c4ccccc34)nc(N3CCOCC3)c2C#N)cc1 equals 95

The recorded growth for entry C#CCNC(=O)[C@H](Cc1ccccc1)NC(=O)[C@]12CC[C@@H](C(=C)C)[C@@H]1[C@H]1CC[C@@H]3[C@@]4(C)Cc5c([nH]c6ccccc56)C(C)(C)[C@@H]4CC[C@@]3(C)[C@]1(C)CC2 equals 109

###

system: IGROV1 ovarian; test: NCI-60 one-dose screen, 48 h; conditions: 10 µM unless noted
The panel holds about 83,000 compounds, 20% with a hit somewhere; the sample as a whole holds those more often. Activity calls are given as the source filed them. The calls were made as follows: active = growth percent below 10; inactive = the rest.
Parameter call: string, one of 1.0 = active, 0.0 = inactive

Below are worked cases with known answers.
COc1ccc(-n2cc(-c3cc(OC)c(OC)c(OC)c3)n(C(C)=O)c2=O)cc1 = 0.0
COc1ccc(C(=O)c2cc3c(N)c(C(=O)Nc4cccc(Cl)c4C)sc3nc2C)cc1 = 0.0
CCN(CC)CCSCCCNc1c(C)cnc2cc(Cl)ccc12 = 0.0
CC(=O)OC1CCC2(C)C(CCC3C4CC=C(C(C)=O)C4(C)OC(=O)CC32)C1 (stereo not drawn) = 0.0
O=C(N/N=C/c1ccncc1)c1ccccc1Nc1cccc(C(F)(F)F)c1 = 0.0

Dear colleague, could you share the recorded outcome for COc1cc(NCC(O)CN(CC(C)C)C2CCCC2)c2ncccc2c1 (stereo not drawn) when you have a moment?
0.0

Dear colleague, could you share the recorded outcome for COc1ccc(-c2nc(N/N=C/c3c[nH]c4ccccc34)nc(N3CCOCC3)c2C#N)cc1 when you have a moment?
0.0

Dear colleague, could you share the recorded outcome for O=C(Nc1cccc(C2=NCCN2)c1)c1ccc(OCCCOc2ccc(C(=O)Nc3cccc(C4=NCCN4)c3)cc2)cc1 when you have a moment?
1.0

Dear colleague, could you share the recorded outcome for Cc1nn(-c2ccccc2)c(N2CCOCC2)c1/C=N/N=c1\sc2ccccc2n1C when you have a moment?
0.0

Dear colleague, could you share the recorded outcome for Cc1cc(C)c(C=O)c(C)c1 when you have a moment?
0.0

Dear colleague, could you share the recorded outcome for C=C1C(=O)O[C@H]2[C@H]1CC/C(COC(=O)CCCCCC(=O)OC/C1=C/CC[C@@]3(C)O[C@H]3[C@H]3OC(=O)C(=C)[C@@H]3CC1)=C\CC[C@@]1(C)O[C@@H]21 when you have a moment?
1.0

Dear colleague, could you share the recorded outcome for O=S(=O)(NCCCNc1nccc(-c2c(-c3ccc(F)c(O)c3)nc3sccn23)n1)c1ccc(F)cc1 when you have a moment?
1.0

Dear colleague, could you share the recorded outcome for [O-][n+]1ccccc1CCN(O)CCc1cccc[n+]1[O-] when you have a moment?
0.0

Dear colleague, could you share the recorded outcome for CCC(=O)c1ccc(O)c(OC)c1 when you have a moment?
0.0

Dear colleague, could you share the recorded outcome for COc1ccc2c(Nc3ccc(NS(C)(=O)=O)cc3)c3ccccc3nc2c1 when you have a moment?
1.0

Dear colleague, could you share the recorded outcome for CS(=O)(=O)Nc1cc(-c2ccc3ncnc(Nc4ccc5[nH]ncc5c4)c3c2)cnc1Cl when you have a moment?
0.0

Dear colleague, could you share the recorded outcome for O=C(CCN1CCCC1)Nc1ccc2c(Nc3ccccc3)c3ccccc3nc2c1 when you have a moment?
0.0

Dear colleague, could you share the recorded outcome for O=C1c2ccccc2-c2c1c1c(NCCCO)nc3ccccc3c1n2Cc1ccccc1 when you have a moment?
0.0

###

system: HOP-92 NSCLC; experiment: NCI-60 one-dose screen, 48 h; details: 10 µM unless noted
About 83,000 compounds went through this panel and 20% of them were active in at least one assay; those are over-represented in the sample as a whole. Active and inactive are the calls of the source. The calls were made as follows: active = growth percent below 10; inactive = the rest.
Parameter call: string, one of active, inactive

O=C1NC(=O)C(=Cc2cn(Cc3ccccn3)c3ccccc23)C(=O)N1 = inactive

Dear colleague, could you share the recorded outcome for C#Cc1cccc(NC(=O)Nc2ccc(NC(=O)CCl)cc2)c1 when you have a moment?
active

Dear colleague, could you share the recorded outcome for CCOC(=O)N1CCN(CCCCl)CC1 when you have a moment?
inactive

Dear colleague, could you share the recorded outcome for CCNNC(=O)[C@@H]1[C@H](c2cc(OC)c(OC)c(OC)c2)c2cc3c(cc2[C@H](O)[C@H]1CO)OCO3 when you have a moment?
active

###

tested on: MDA-MB-435 melanoma; experiment: NCI-60 one-dose screen, 48 h (100 = growth as untreated, 0 = no growth, -100 = all killed); conditions: 10 µM unless noted
Compounds without any hit were thinned out: in the full panel of roughly 83,000, 20% have a hit.
readout.kind: growth (%)
Report only the number, with the unit % understood.

Consider the reported growth for these molecules:
S=c1[nH]cccc1-c1nnc2n1Nc1nc3ccc(Cl)cc3cc1CS2 = 103
CC(=O)O[C@]1(C(C)=O)CC[C@H]2[C@@H]3C=C(Cl)C4=CC(=O)CC[C@]4(C)[C@H]3CC[C@@]21C = 113

Consider the additional molecule presented here.
The recorded growth for entry Cc1ccc(S(=O)(=O)Nc2ccc(Cl)cc2)cc1 equals 101

###

system: IGROV1 ovarian; experiment: NCI-60 one-dose screen, 48 h (100 = growth as untreated, 0 = no growth, -100 = all killed); details: 10 µM unless noted
This is part of a sample that, as a whole, favours compounds with a hit. Of some 83,000 tested, about 20% had one in any assay.
Collected growth values appear next to each entry.
Report only the number, with the unit % understood.

Consider the reported growth for these molecules:
Cc1cccc(Oc2ccc(Nc3ncnc4ccc(NC(=O)CN(C)C)cc34)cc2Cl)c1 = 3.8
C=C(C)[C@@H]1CC[C@]2(C=O)CC[C@]3(C)[C@H](CC[C@@H]4[C@@]5(C)CCCNC(C)(C)[C@@H]5CC[C@]43C)[C@@H]12 = 50.8
CCCCCCCC(=O)Nc1nc2[nH]c(CN3CCN(Cc4cccc(I)c4)CC3)c(CN3CCN(Cc4cccc(I)c4)CC3)c2c(=O)[nH]1 = -74
CCCC/C(=N\N=C(N)N)c1ccc(F)cc1 = 45
COc1c(Cl)cc(Cl)c2ccc(C=C3C(=O)NC(=S)NC3=O)nc12 = 108
CN1CCN(CC#CCNC(=O)[C@]23CCC(C)(C)C[C@H]2C2=CC[C@@H]4[C@@]5(C)Cc6c([nH]c7ccccc67)C(C)(C)[C@@H]5CC[C@@]4(C)[C@]2(C)CC3)CC1 = 81.3
O=C1Nc2ccccc2/C1=C\c1cccc(/C=C2/C(=O)Nc3ccccc32)n1 = -66.8
O=C(Nc1ccc(Nc2ncccn2)cc1)NC1C=c2ccccc2=CC1 (stereo not given) = 106

The recorded growth for entry CC(C)(C)OC(=O)N1CCN(c2ccc(N)cc2)C(=O)C1 equals 112

The recorded growth for entry COc1cc(C2CC(c3cccc(Nc4ccncc4)c3)=NN2c2ccccc2)cc(OC)c1OC (stereo not given) equals 55

The recorded growth for entry Clc1ccc(C2CC(c3cccc(Nc4ccncc4)c3)=NN2c2ccccc2)cc1 (stereo not given) equals 25.9

The recorded growth for entry CC(=O)CCSc1ccc(OC(C)=O)cc1 equals 114

Recorded values, source PubChem BioAssay (NCI).
